- ASSAYED TARGET: T1, AAV9 capsid (adeno-associated virus serotype 9, UniProt Q6JC40)
- T1 construct: also called wtAAV9; AAV9 vector; copies: 60
- EXPERIMENT SUMMARY: cryo-EM structure; purified AAV9 vectors mixed with Fabs at ~2 Fabs per potential VP binding site (~1:120 capsid to Fab); icosahedral reconstruction and localized reconstruction with symmetry relaxation
- CONDITION PARAMETERS: both partners purified

{"BINDER": "Fab1-2 (Fab, V domains shown) VH: EVQLVESGGGLVQPGGSLRLSCAASGFIFSNYWMSWVRQAPGKGPEWVANIKQDGSANHYVDSVKGRFTISRDNAKNSLYLQMNSLRAEDTAVYYCAREAYQDWNYDYWGQGTLVTVSS VL: DIQMTQSPSSLSASVGDRVTVTCRASEFISRYLNWYQQKPGKAPKVLIYAASSLQSGVPSRFSGSGSGTDFTLTISSLQPEDFATYYCQQSYSTPYTFGQGTKLEIK", "binding result": "binds"}
{"BINDER": "Fab2-3 (Fab, V domains shown) VH: VQLVESGGGLVKPGGSLRLSCATSGFTFSDYYMSWIRQAPGKGLEWVSYISSSGSTIYYADSVKGRFTMSRDNAKNSLFLRMNSLRAEDTAVYYCARDQITVDREVIRAHYYYGMDVWGQGTTVTVS VL: DIQMTQSPSSVSASVGDRVTITCRASQGINSYLAWYQQKPGKAPKLLIYAASSLESGVPSRFSGSGSGTDFTLTISSLQPEDFATYYCQQANSFPLTFGGGTKVDI", "binding result": "binds"}
{"BINDER": "Fab3-4 (Fab, V domains shown) VH: AVESGGGLVKPGGPLRLSCAASGFSLSDNYMTWIRQAPGKGLEWVSYISSSGSFINYADSVKGRFTISRDNAKNSLYLQMNSLRAEDTAVYYCARVLSSGGLTTSWRALWYFDVWGRGTLVTVS VL: TVVTQEPSFSVSPGGTVTLTCGLTSGSVSTSYYPSWYQQTPGQTPRTLIYSTNIRSSGVPDRFSGSILGNKAALTITGAQADDECDYYCVLYMGSGIWVFGGGTKLTVL", "binding result": "binds"}
